assayedSystem: hemagglutinin (HA) of influenza A/Solomon Islands/3/06 H1N1 (Influenza A virus A/Solomon …)
assayNotes: ELISA, inactivated whole virions coated; transfection supernatant set 4
For each of the binders below, state its OD450.
Answer in OD450, number only, no unit symbol.

I have this binder here, TCN-504 (3251_K17) (antibody, V domains shown) VH: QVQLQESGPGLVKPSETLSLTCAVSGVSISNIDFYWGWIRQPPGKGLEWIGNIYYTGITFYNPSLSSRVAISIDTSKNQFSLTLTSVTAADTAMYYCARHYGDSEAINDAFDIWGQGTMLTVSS VL: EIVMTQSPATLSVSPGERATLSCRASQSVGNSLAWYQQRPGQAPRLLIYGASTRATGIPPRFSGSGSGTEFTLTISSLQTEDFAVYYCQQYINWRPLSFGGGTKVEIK , and I need its recorded OD450.
3.52

Also check TCN-523 (5248_A17) (antibody, V domains shown) VH: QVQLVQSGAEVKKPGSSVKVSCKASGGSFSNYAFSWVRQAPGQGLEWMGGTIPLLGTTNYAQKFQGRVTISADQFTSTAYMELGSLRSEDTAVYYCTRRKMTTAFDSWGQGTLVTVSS VL: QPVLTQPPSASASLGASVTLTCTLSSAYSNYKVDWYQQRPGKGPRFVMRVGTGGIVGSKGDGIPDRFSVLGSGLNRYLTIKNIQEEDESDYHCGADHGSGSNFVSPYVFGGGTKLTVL
3.43
